Assay: Metabolic stability in rat liver microsomes assessed as half life at 10 uM by LC-MS/MS analysis
Type: ADME, Microsome
MEASURED ATTRIBUTE: half-life at 10 µM (h)
# number only, unit h dropped from output

Value of measured half-life at 10 µM for the entry CCOC(=O)C1=C(C)NC(=O)NC1c1cc2c(cc1OC)OC(C)(CC)C=C2Cl (stereo unspecified) : 1.18

###

Test: Intrinsic clearance in human microsomes at 10 uM by LC-MS/MS analysis
Format: ADME, Microsome
MEASURED ATTRIBUTE: CLint (µL/min/mg)
Quick reminder: number only, in µL/min/mg, skip the unit.

# molecule CCOC(=O)C1=C(C)NC(=O)NC1c1cc2c(cc1OC)OC(C)(CC)C=C2Cl (stereo unspecified) ; its CLint = 20.6
